subject of test: T1, Bicoid DBD-GST (Bcd) (UniProt P09081 83-170)
T1 sequence: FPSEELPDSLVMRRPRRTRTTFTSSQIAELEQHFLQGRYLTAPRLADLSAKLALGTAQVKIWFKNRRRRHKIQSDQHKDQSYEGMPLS
experimental protocol: competitive fluorescence anisotropy (HiP-FA); mean of replicates 45.665, 45.961; HiP-FA: 33 mM phosphate pH 7.0, 90 mM NaCl, 0.01% Tween 20, 0.1 mM DTT, 0.5% agarose; conventional titration and EMSA: 20 mM Tris-acetate pH 7.0, 50 nM (sic) NaCl, 0.01% Tween-20, 0.1 mM DTT
test conditions: protein: recombinant; tags: N-terminal GST; blunt, G:G mismatch at position 6
result type: Kd (nM)
Just the number in nM, nothing appended.

Consider the binder shown here: Bcd competitor 17 (A6G) (dsDNA) DNA 1: TCGACGGTAGTCCCTA DNA 2: TAGGGACTACGGTCGA What is its recorded Kd?
45.8
